- Protocol summary: physchem
- Type: physicochemical
- Run parameters: water, thermodynamic from solid
Property name: solubility

Request: Which solubility is listed for CC/C=C\C/C=C\C/C=C\C/C=C\C/C=C\CCCC(=O)O ?
Result: < 200 µg/mL
